Tested on: UO-31
Assay: NCI tumour cell line growth inhibition, 48 h
Activity calls are given as the source filed them. Cut-off read from the data, not from the text of the source: active = GI50 up to about 1.1 µM and inactive = higher. Residues, ends and D or L forms follow the SMILES beside them. Groups on a side chain read outwards from the residue. *: point of attachment. Cbz = O=C(OCc1ccccc1)*; Boc = CC(C)(C)OC(=O)*
Select the matching outcome among 1 (active), 0 (inactive)

For orientation, consider the following solved cases.
S=C(/N=c1\sc(NCc2ccccc2)nc2sc3c(c12)CCN(N1CCc2c(sc4nc(NCc5ccccc5)s/c(=N\C(=S)NCc5ccccc5)c24)C1)C3)NCc1ccccc1	0
O=C1c2ccccc2C(=O)c2sc(Nc3ccccc3C(F)(F)F)nc21	0

Ask: What did this assay record as the result for `O=P1(Cc2ccccc2)c2ccccc2-c2ccccc21` ?
Result: 0

Ask: What did this assay record as the result for `CC(=O)Oc1cccc2c1C(=O)CCCC2` ?
Result: 0

Ask: What did this assay record as the result for `COc1cccc(-c2cc(O)c3cc4c(cc3n2)OCO4)c1` ?
Result: 1

Ask: What did this assay record as the result for CC(C)(C)OC(=O)NC(CCCCNC(=O)CNC(=O)OCc1ccccc1)C(=O)NC(CCCCNC(=O)CNC(=O)OCc1ccccc1)C(=O)NC(CCCCNC(=O)CNC(=O)OCc1ccccc1)C(=O)NC(CCCCNC(=O)CNC(=O)OCc1ccccc1)C(=O)O (stereo not given) (Boc-K([Gly-Cbz])K([Gly-Cbz])K([Gly-Cbz])K([Gly-Cbz])-OH; configuration not given here) ?
Result: 0

Ask: What did this assay record as the result for `COc1ccc(/C=N/NS(=O)(=O)c2ccc(/C=C3\NC(=O)N(C)C3=O)cc2)cc1` ?
Result: 0

Ask: What did this assay record as the result for CCC1c2[nH]c3ccccc3c2C[C@H]2C(=O)NC(Cc3ccccc3)C(=O)N12 (stereo not given in full) ?
Result: 0

Ask: What did this assay record as the result for `Clc1cc(Cl)c2cc3cccc[n+]3cc2c1Cl` ?
Result: 0

Ask: What did this assay record as the result for `C=C1[C@H](OCC(C)C)[C@@H](OCC(C)C)[C@@H](O)C(C)(C)/C=C/[C@H](C)C(=O)[C@@]2(O)C[C@H](C)[C@H](O)[C@@H]2[C@H]1OCC(C)C` ?
Result: 0

Ask: What did this assay record as the result for NC(=O)C(NC=O)c1ccccc1 (stereo not given) ?
Result: 0

---

Test system: HL-60
Assay: NCI tumour cell line growth inhibition, 48 h
Active and inactive are the calls of the source. Rule as the data show it: active = GI50 up to about 1.1 µM and inactive = higher.
Readout Name: GI50

Examples with their reported GI50 follow.
CCOC(=O)NC(=O)c1cn(C2OC(CO)C(O)C2O)c(=O)[nH]c1=O (stereo unspecified)	> 100 µM (inactive)
COc1cc([N+](=O)[O-])cc2c1NC(=O)C2(C)SC (stereo unspecified)	18.3 µM (inactive)
Clc1ccc(-c2c(C3=NCCN3)nnn2-c2ccc(Cl)cc2)cc1	17.5 µM (inactive)
COc1ncnc2c1cnn2Cc1cn(COCC(O)CO)nn1 (stereo unspecified)	> 100 µM (inactive)
CN1CCN(c2ccc3nc(C4=C(O)C(=O)[C@@H]5C(=C4O)N=C(CO)N5C)[nH]c3n2)CC1	40.2 µM (inactive)
Cc1cc(O)ccc1C1(c2ccc(F)cc2)OC(=O)c2ccccc21 (stereo unspecified)	34 µM (inactive)
CCCCCCCC/C=C\CCCCCCC(F)C(=O)O (stereo unspecified)	> 12.5 µM (inactive)
CS(=O)(=O)NNS(=O)(=O)c1ccccc1	> 100 µM (inactive)

Take each entry in turn and give its GI50.
1. COc1ccc(N2C(=O)/C(=C\c3cccc(Oc4ccccc4)c3)S(=O)(=O)C2c2ccccc2)cc1 (stereo unspecified)
2. CCOC(=O)COc1cccc2c1C(=O)CCO2
3. NC(=O)C12C3C4C1C1C2C3C41C(N)=O (stereo unspecified)

Result:
1. 7.24 µM (inactive)
2. > 100 µM (inactive)
3. > 100 µM (inactive)

---

Test system: SNB-75
Assay: NCI tumour cell line growth inhibition, 48 h
Activity calls are given as the source filed them. No stated cut-off is given here; in the data, active = GI50 up to about 1.1 µM and inactive = higher.
Select the matching outcome among active, inactive

For orientation, consider the following solved cases.
COC(=O)C(CC(=O)Nc1ccc(Cl)c(Cl)c1)C(=O)C(=O)Nc1ccc(Cl)c(Cl)c1 (centres undefined)	inactive
COc1ccc(/N=C\c2ccc(N(CCC#N)S(=O)(=O)c3ccccc3)cc2C)cc1	inactive
C=C1[C@H](OCC(C)C)[C@@H](OCC(C)C)[C@@H](O)C(C)(C)/C=C/[C@H](C)C(=O)[C@@]2(O)C[C@H](C)[C@H](O)[C@@H]2[C@H]1OCC(C)C	inactive
COc1cc2c(/C=C3/C(=O)N(C)c4ccc(O)cc43)c(Cl)[nH]c2cc1C	active
CCCCCCCCCCCCCC(=O)O[C@H]1CC[C@H](NC(=O)[C@H](OC)[C@H](O)[C@@H](O)[C@H](O)/C=C/C(C)C)C(=O)N(C)C1 [BENGAMIDE B]	active
CSCCC(NCc1c(O)ccc2ccc(=O)oc12)C(=O)O (centres undefined)	inactive
COc1ccc2c(O)c3[n+](cc2c1OC)CCc1cc2c(cc1-3)OCO2	inactive
COC(=O)CCC(NC(=S)N/N=C(\C)c1ccco1)C(=O)OC (centres undefined)	inactive

Now consider the entry below.
Ask: What did this assay record as the result for `Cc1cc2c(c(C(=O)O)c1C)-c1cccc(F)c1C2=O` ?
Result: inactive

---

Tested on: HCC 2998
Test: NCI tumour cell line growth inhibition, 48 h
The source made the active and inactive calls. No stated cut-off is given here; in the data, active = GI50 up to about 1.1 µM and inactive = higher.
Readout Name: GI50

Examples with their reported GI50 follow.
NC(=O)N/N=C1\CCCCc2ccccc21	> 10 µM (inactive)
CN(C)CC[N+]1=Nc2cccc3cccc(c23)N1	> 95.7 µM (inactive)
NCCCN(CCCN(C(=O)Nc1ccccc1)c1ccccc1)C(=O)Nc1ccccc1	25.6 µM (inactive)
COc1ccc2cc3nc(O)cc(O)c3cc2c1OC	> 100 µM (inactive)
Cc1c(C)c(C)c(-n2c(=O)n(C)c(=O)n2-n2c(=O)n(C)c(=O)n2-c2c(C)c(C)c(C)c(C)c2C)c(C)c1C	> 100 µM (inactive)

Take each entry in turn and give its GI50.
1. O=C1OC(O)C(Oc2ccc(Cl)cc2)=C1Cl (configuration not stated)
2. CC1(C)NC(C(=O)c2ccccc2)=[N+]([O-])C1(O)c1ccccc1 (configuration not stated)
3. CC[C@@]1(C)CCC2c3ccc(O)cc3CC[C@H]2C1C (some centres not stated)
4. COC(=O)[C@@]12CC[C@]1(C(=O)OC)C1C(C)=CC(=O)O[C@@]12C (some centres not stated)
5. O=C1CCCC/C1=C1\C(=O)Nc2cc(F)ccc21
6. CCOC(=O)C(=Cc1cc(OC)ccc1OC)C(=O)OCC

Result:
1. > 100 µM (inactive)
2. > 100 µM (inactive)
3. 13.7 µM (inactive)
4. > 100 µM (inactive)
5. > 100 µM (inactive)
6. 20 µM (inactive)

Ask: // Input: Clc1ccccc1C1=NN(c2ccccc2)C2c3cc(Br)ccc3OCC12 (configuration not stated) . Output its GI50 only.
Result: > 100 µM (inactive)

---

Tested on: KM-20L2
Assay: NCI tumour cell line growth inhibition, 48 h
Calls of active or inactive are those of the source. No stated cut-off is given here; in the data, active = GI50 up to about 1.1 µM and inactive = higher.
Select the matching outcome among t = active, f = inactive

Ask: What did this assay record as the result for `CS(=O)(=O)NNS(=O)(=O)c1ccccc1` ?
Result: f

Ask: What did this assay record as the result for `O=C1/C(=C/c2ccccc2)CN(C(=O)OCC(Cl)(Cl)Cl)C/C1=C\c1ccccc1` ?
Result: f

Ask: What did this assay record as the result for COC1OC(COC(C)=O)C(OC(C)=O)C(OC(C)=O)C1NC(=O)N(CCCl)N=O (stereo not given) ?
Result: f

Ask: What did this assay record as the result for CC(c1ccccc1)C(O)S(=O)(=O)O (stereo not given) ?
Result: f

Ask: What did this assay record as the result for `O=C(O)c1cc2c(s1)C(=O)c1sccc1C2=O` ?
Result: f

Ask: What did this assay record as the result for `O=C(CSSCC(=O)OCCS(=O)(=O)Nc1ccc(Br)cc1)OCCS(=O)(=O)Nc1ccc(Br)cc1` ?
Result: f

Ask: What did this assay record as the result for COC(=O)C(=O)C(C(=O)C(=O)Nc1ccc(OC)cc1[N+](=O)[O-])c1nc2ccc([N+](=O)[O-])cc2nc1O (stereo not given) ?
Result: f

Ask: What did this assay record as the result for `Cc1ccc(S(=O)(=O)c2ccccc2[N+](=O)[O-])cc1` ?
Result: f

Ask: What did this assay record as the result for `C[Si](C)(C)/C=C\CCCN1C(=O)CCC1=O` ?
Result: f

Ask: What did this assay record as the result for CCOc1ccc(NC(=O)CC2SC(Nc3ccc(C)cc3)=NC2=O)cc1 (stereo not given) ?
Result: f

Ask: What did this assay record as the result for `CCOC(=O)c1cn2c([nH]c3ccccc32)c(C#N)c1=O` ?
Result: f
